# testedOn: FLAG tagged human Ang2 (Alexis Biochemicals) (human) (UniProt O15123)
# Sequence (O15123 19-496): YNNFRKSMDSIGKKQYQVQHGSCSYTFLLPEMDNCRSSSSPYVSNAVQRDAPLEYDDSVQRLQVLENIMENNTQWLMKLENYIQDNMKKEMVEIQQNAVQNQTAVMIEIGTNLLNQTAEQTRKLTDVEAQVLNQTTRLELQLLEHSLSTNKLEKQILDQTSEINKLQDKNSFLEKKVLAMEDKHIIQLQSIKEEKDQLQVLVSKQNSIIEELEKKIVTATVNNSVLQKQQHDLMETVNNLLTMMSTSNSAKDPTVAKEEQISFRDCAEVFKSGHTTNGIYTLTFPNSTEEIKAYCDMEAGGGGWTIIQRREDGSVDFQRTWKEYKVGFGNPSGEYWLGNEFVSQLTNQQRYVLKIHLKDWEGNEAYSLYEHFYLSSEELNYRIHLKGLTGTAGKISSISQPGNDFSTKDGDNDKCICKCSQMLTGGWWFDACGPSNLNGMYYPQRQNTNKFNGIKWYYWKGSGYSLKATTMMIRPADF
# assayRemarks: competition ELISA, FLAG-hAng2 (0.02 nM) on coated hTie2/Fc
// boundary case: IC50 equal to 10 nM maps to Not fulfilled; strictly smaller maps to Fulfilled

1) VHH 16G09 (VHH, not shown: small tags and cut ends) VHH: EVQLVESGGGLVQAGGSLRLVCSASGIDFSINAMAWYRQAPGKQREWVAFMINDSSTDYTDSVKGRFTISRDSTKNILYLQMNNLNVEDTAVYYCNTAYEQHTYWGQGTQVTVSS = Not fulfilled
2) VHH 14H02 (VHH, not shown: small tags and cut ends) VHH: EVQLVESGGGLVQAGGSLRLSCAASGFTFDEYAIGWFRQAPGKEREGVSYISSSDGSTYYADSVKGRVTSSSDNAKNTVYLQMNSLKPEDTAVYYCAARPTLRVRLDNDRHHLLYEYEYDYWGQGTQVTVSS = Not fulfilled
3) VHH 10C06 (VHH, not shown: small tags and cut ends) VHH: EVQLVESGGGLVQAGGSLRLSCVASGFTFDDYAIGWFRQAPGKEREGVSCISSSDGSTYYADSVKGRFTISGDNAKNTVYLQMNSLKPEDTAVYYCAAGITPCSDYTQTYEYDVWGQGTQVTVSS = Fulfilled
4) VHH 22C07 (VHH, not shown: small tags and cut ends) VHH: EVQLVESGGGLVQAGGSLRLSCAASGFTFDDYAIGWFRQAPGKEREGVSCISSSDGSTYYADSVKGRFTISSDNAKNTVYLQMNSLKPEDTAVYYCAADFIISSKRLCLDLFGSRGQGTQVTVSS = Not fulfilled
5) VHH 15H04 (VHH, not shown: small tags and cut ends) VHH: EVQLVESGGGLVQAGGSLGLSCAASERTLPSYVMGWFRQAPGKELEFVAGISWSSGRTYYTDSVKGRFTISRDAAENTWYLQMNSLKPEDTAVYYCASNSVSEPTLHTWQYEASYDYWGQGTQVTVSS = Not fulfilled
6) VHH 25F01 (VHH, not shown: small tags and cut ends) VHH: EVQLVESGGGLVQAGGSLRLSCAVSGLPFDDYVIGWFRQAPGKEREGVSCISSSDGSTYYADSVKGRFTISSDNAKNTVYLQMNSLKPEDTAAYYCAAGGPRINIATMTCSHDEYEYDYWGQGTQVTVSS = Fulfilled
